ASSAY_TARGET: T1, cynomolgus monkey serum albumin (cynomolgus monkey, UniProt A2V9Z4 25-608)
T1 construct: Immobilised on SPR chips; also called cynoSA; cynomolgus albumin
EXPERIMENTAL_PROTOCOL: SPR Biacore 8K+ SCK, albumin on chip, pH 5.5

BINDER	kon (M⁻¹ s⁻¹)
Alb23 G99A (VHH, VHH alone) VHH: EVQLLESGGGLVQPGGSLRLSCAASGFTFRSFGMSWVRQAPGKGPEWVSSISGSGSDTLYADSVKGRFTISRDNSKNTLYLQMNSLRPEDTAVYYCTIAGSLSRSSQGTLVTVSS	1.05e+06
Alb23 G100A (VHH, VHH alone) VHH: EVQLLESGGGLVQPGGSLRLSCAASGFTFRSFGMSWVRQAPGKGPEWVSSISGSGSDTLYADSVKGRFTISRDNSKNTLYLQMNSLRPEDTAVYYCTIGASLSRSSQGTLVTVSS	905000
Alb23 M34A (VHH, VHH alone) VHH: EVQLLESGGGLVQPGGSLRLSCAASGFTFRSFGASWVRQAPGKGPEWVSSISGSGSDTLYADSVKGRFTISRDNSKNTLYLQMNSLRPEDTAVYYCTIGGSLSRSSQGTLVTVSS	1.09e+06
